target: T1, human CCR8 (human, UniProt P51685 1-355); assay: flow cytometry, CHO-huCCR8.Gna15 cells, relative to rb.Ab5
T1 construct: the assay field says which; also called hCCR8; huCCR8
readout-kind: Relative EC50

Challenge: Relative EC50 for hu.Ab5.H3L1 (antibody, human IgG1, kappa, V domains shown) VH: EQQLLESGGGLVQPGGSLRLSCAASGIDLSTYAMGWVRQAPGKGLEWIGLIHRSGRTYYATWAKGRFTISKDSSKTTVYLQMNSLRAEDTAVYFCTRSYPDYSATASIWGPGTTVTVSS VL: DIQVTQSPSSLSASVGDRVTITCQASENIANALAWYQQKPGKPPKFLIYGASNLASGVPSRFSGSGSGTDFTFTISSLQPEDIATYYCQQAYYGNSFVEGTFGGGTKVEIKR ?
Response given: 1.5 ratio
